target.or.test.system: T1, Human CD228 protein (human, UniProt P08582 20-708, limits assumed)
T1 construct: Recombinant protein made in CHO cells, purified over a Ni column; The printed entry begins with the leader (MRGPSG...) and ends with ten His; also called hCD228; CD228-His protein
T1 sequence: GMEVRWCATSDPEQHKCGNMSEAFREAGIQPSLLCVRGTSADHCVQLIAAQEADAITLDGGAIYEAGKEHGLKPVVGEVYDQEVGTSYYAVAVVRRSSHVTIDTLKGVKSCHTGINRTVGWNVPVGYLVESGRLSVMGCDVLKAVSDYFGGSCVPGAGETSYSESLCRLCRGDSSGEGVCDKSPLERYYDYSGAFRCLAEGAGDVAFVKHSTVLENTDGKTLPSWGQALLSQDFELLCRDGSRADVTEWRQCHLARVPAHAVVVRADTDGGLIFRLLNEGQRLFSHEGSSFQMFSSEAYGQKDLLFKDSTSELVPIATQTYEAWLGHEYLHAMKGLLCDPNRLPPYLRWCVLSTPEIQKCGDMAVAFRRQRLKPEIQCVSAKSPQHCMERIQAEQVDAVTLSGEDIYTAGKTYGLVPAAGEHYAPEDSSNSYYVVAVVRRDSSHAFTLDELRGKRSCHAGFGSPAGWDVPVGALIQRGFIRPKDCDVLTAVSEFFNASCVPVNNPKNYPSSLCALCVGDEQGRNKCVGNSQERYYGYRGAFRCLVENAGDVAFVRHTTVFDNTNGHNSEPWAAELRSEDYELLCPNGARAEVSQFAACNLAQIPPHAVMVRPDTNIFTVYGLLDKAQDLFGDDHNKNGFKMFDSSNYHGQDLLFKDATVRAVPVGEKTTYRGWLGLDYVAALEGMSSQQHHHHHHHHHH
measurement.notes: ELISA, plate coated with human CD228 protein
observed.property: EC50 (ng/mL)

CA185 (antibody, human IgG1, kappa, V domains shown, Intact IgG1) VH: EVQLVESGGGVVQPGRSLRLSCAASGFTFSSYAMHWVRQAPGKGLEWVAVISYDGSNKYYADSVKGRFTISRDNSKNTLYLQMNSLRAEDTAVYYCAREVPYYYGSGPFDYWGQGTLVTVSS VL: EIVLTQSPGTLSLSPGERATLSCRASQSVSSSSLAWYQQKPGQAPRHLIDGASSRASGIPDRFSGSGSGTDFTLTISRLEPEDFAVYYCQQYGSSYTFGQGTKVDIKR = 3.9
reference antibody hL49 (antibody, human IgG1, kappa, V domains shown, also called H149; hL49 analogy) VH: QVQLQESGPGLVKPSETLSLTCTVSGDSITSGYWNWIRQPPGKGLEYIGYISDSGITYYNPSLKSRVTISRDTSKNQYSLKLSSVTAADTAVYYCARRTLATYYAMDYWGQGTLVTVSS VL: DFVMTQSPLSLPVTLGQPASISCRASQSLVHSDGNTYLHWYQQRPGQSPRLLIYRVSNRFSGVPDRFSGSGSGTDFTLKISRVEAEDVGVYYCSQSTHVPPTFGQGTKLEIKR = 27.8
CA149 (antibody, human IgG1, kappa, V domains shown, Intact IgG1; also called CA149 antibody) VH: EVQLVESGGGVVQPGRSLRLSCAASGFTFSSYAMHWVRQAPGKGLEWVAVISFDGSNKYYTDSVKGRFTISRDNSKNTLYLQMNSLRAEDTAVYYCAREVPYYYGSGPFDYWGQGTLVTVSS VL: EIVLTQSPATLSVSPGERATLSCRASQSVSSNLAWYQQKPGQAPRHLIDGASSRASGIPDRFSGSGSGTDFTLTISRLEPEDFAVYYCQQYGSSPPFTFGPGTKVDIKR = 3.6
BA352 (antibody, human IgG1, kappa, V domains shown, Intact IgG1) VH: EVQLVESGGGVVQPGRSLRLSCAASGFTFSSYAMHWVRQAPGKGLEWVAVISYDGSNKYYADSVKGRFTISRDNSKNTLYLQMNSLRAEDTAVYYCARGPYLAAAGTALTFDIWGQGTMVTVSS VL: DIQMTQSPSAMSASVGDRVTITCRASQGINNYLAWFQQKPGKVPKRLIYAASSLQSGVPSRFSGSGSGTEFTLTISSLQPEDFATYYCLQHNSYPFTFGPGTKVDIKR = 6.1
CA518 (antibody, human IgG1, kappa, V domains shown, Intact IgG1) VH: EVQLVESGGGVVQPGRSLRLSCAASGFTFSSYAMHWVRQAPGKGLEWVAVISYDGSNKYHADSVKGRFTISRDNSKNTLFLQMNSLRAEDTAVYYCVRDVYHYGSRSPYYYGMDVWGQGTTVTVSS VL: DIQMTQSPSSVSASVGDRVTITCRASQGISSWLAWYQQKPGKAPKLLIYAASSLQSGVPSRFSGSGSGTDFTLTISSLQPEDVATYYCQKYNSAPFTFGPGTKVDIKR = 4.3
CA13 (antibody, human IgG1, kappa, V domains shown, Intact IgG1 from fully human antibody-transgenic mice) VH: EVQLVESGGGVVQPGRSLRLSCAASGFTFSSYAMHWVRQAPGKGLEWVAVISYDGSNKYYADSVKGRFTISRDNSKNTLFLQMNSLRAEDTAVYYCARDVYHYGSRSPYYYGMDVWGQGTTVTVSS VL: DIVMTQSPSSLSASVGDRVTITCRASQGISNYLAWFQQKPGKVPKLLIYAASTLQSGVPSRFSGSGSGTDFTLTISSLQPEDVATYYCQKYNSAPFTFGPGTKVDIKR = 3.2
CA67 (antibody, human IgG1, kappa, V domains shown, Intact IgG1) VH: EVQLVESGGGVVQPGRSLRLSCAASGFTFSSYAMHWVRQAPGKGLEWVAVISYDGSNKYYADSVKGRFTISRDNSKNTLYLQMNSLRAEDTAVYYCARDVYHYGSRSPYYYGMDVWGQGTTVTVSS VL: DIQMTQSPSSLSASVGDRVTITCRASQAISNYLAWYQQKPGKVPKLLIYAASTLHPGVPSRFSGSGSGTDFTLTISSLQPEDVATYYCQKYNSAPFTFGPGTKVDIKR = 3.8
